Values from patent US9115129B2

TEST_TARGET: IP receptor (Homo sapiens)
ASSAY_COMMENT: cAMP accumulation in CHO cells stably expressing the IP receptor (CHO-IP), Perkin Elmer AlphaScreen assay
TEST_SETTINGS: agonist activity, 1 hour at room temperature
ASSAY_METRIC: EC50 (nM)

1. Cc1ccc(-c2nc3c(nc2-c2ccc(C)cc2)N(CCCCCCC(=O)Nc2ccccc2)CCC3)cc1 :: 40.7
2. Cc1ccc(-c2nc3c(nc2-c2ccc(C)cc2)N(CCCCCCC(=O)O)C(=O)C(C(C)(C)O)C3)cc1 (single isomer, unassigned) [Example 1.1] :: 0.3
3. Cc1ccc(-c2nc3c(nc2-c2ccc(C)cc2)N(CCCCCC(=O)O)CCC3)cc1 :: 0.3
4. COC1(C)CCN(CCCCCCC(=O)O)c2nc(-c3ccc(C)cc3)c(-c3ccc(C)cc3)nc21 (racemic) [Example 15] :: 0.3

====

Form field: EC50 (one value per entry).
TEST_TARGET: IP receptor (Homo sapiens)
ASSAY_COMMENT: cAMP accumulation in CHO cells stably expressing the IP receptor (CHO-IP), Perkin Elmer AlphaScreen assay
TEST_SETTINGS: agonist activity, 1 hour at room temperature
ASSAY_METRIC: EC50 (nM)

1) Cc1ccc(-c2nc3c(nc2-c2ccc(C)cc2)N(CCCCCCC(=O)O)C(=O)C(O)C3)cc1 (single isomer, unassigned) [11(ii)] :: 0.5
2) Cc1ccc(-c2nc3c(nc2-c2ccc(C)cc2)N(CCCCCCCCC(=O)O)CCC3)cc1 :: 0.6
3) COC1(C)CCN(CCCCCCC(=O)O)c2nc(-c3ccc(C)cc3)c(-c3ccc(C)cc3)nc21 (single isomer, unassigned) [Example 15b] :: 3.6
4) Cc1ccc(-c2nc3c(nc2-c2ccc(C)cc2)N(CCCCCCC(=O)NS(C)(=O)=O)CCC3O)cc1 (single isomer, unassigned) :: 28.6
5) CCC1CCc2nc(-c3ccc(C)cc3)c(-c3ccc(C)cc3)nc2N1CCCCCCC(=O)O (single isomer, unassigned) [2.3(ii)] :: 0.3
6) Cc1ccc(-c2nc3c(nc2-c2ccc(C)cc2)N(CCCCC(O)CC(=O)O)CCC3)cc1 (single isomer, unassigned) [Example 17b] :: 1.8

====

TEST_TARGET: IP receptor (Homo sapiens)
Construct: expressed in transfected cells; host or cells: CHO cells stably expressing the IP receptor (CHO-IP)
ASSAY_COMMENT: cAMP accumulation in CHO cells stably expressing the IP receptor (CHO-IP), Perkin Elmer AlphaScreen assay
Type: cell-based
TEST_SETTINGS: agonist activity, 1 hour at room temperature
The compounds listed here are annotated with their EC50.
ASSAY_METRIC: EC50 (nM)

1. Cc1ccc(-c2nc3c(nc2-c2ccc(C)cc2)C(C)(O)CCN3CCCCCCC(=O)O)cc1 (stereo not shown) :: 0.4
2. Cc1ccc(-c2nc3c(nc2-c2cccc(F)c2)CCCN3CCCCCCC(=O)O)cc1 :: 0.1
3. Cc1ccc(-c2nc3c(nc2-c2ccccc2)CCC(C)N3CCCCCCC(=O)O)cc1 (stereo not shown) :: 2.4
4. Cc1ccc(-c2nc3c(nc2-c2ccc(C)cc2)N(CCCCCCC(=O)NS(=O)(=O)Cc2ccccc2)CCC3O)cc1 (single isomer, unassigned) [Example 13.3] :: 66.2

====

TEST_TARGET: IP receptor (Homo sapiens, UniProt P43119)
Sequence (P43119 whole entry): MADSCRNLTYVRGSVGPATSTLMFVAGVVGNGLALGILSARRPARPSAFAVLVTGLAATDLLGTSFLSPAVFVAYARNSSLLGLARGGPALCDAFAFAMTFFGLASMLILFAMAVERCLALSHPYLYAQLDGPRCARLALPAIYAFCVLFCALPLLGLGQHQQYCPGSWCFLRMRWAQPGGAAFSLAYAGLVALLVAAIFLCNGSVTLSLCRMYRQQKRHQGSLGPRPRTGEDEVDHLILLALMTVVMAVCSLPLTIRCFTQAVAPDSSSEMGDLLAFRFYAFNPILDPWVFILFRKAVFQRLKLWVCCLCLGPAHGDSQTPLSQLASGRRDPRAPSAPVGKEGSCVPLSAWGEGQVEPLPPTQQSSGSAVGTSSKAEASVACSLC
ASSAY_COMMENT: cAMP accumulation in CHO cells stably expressing the IP receptor (CHO-IP), Perkin Elmer AlphaScreen assay
TEST_SETTINGS: agonist activity, 1 hour at room temperature
pEC50: −log10 of the molar value.
ASSAY_METRIC: pEC50

1) Cc1ccc(-c2nc3c(nc2-c2ccc(C)cc2)N(CCCCCCCC(=O)O)C(=O)CC3)cc1 :: 8.72
2) Cc1ccc(-c2nc3c(nc2-c2ccc(C)cc2)N(CCCCCCC(=O)O)C(=O)C(C(C)(C)O)C3)cc1 (single isomer, unassigned) [1.1(ii)] :: 9.22
3) Cc1ccc(-c2nc3c(nc2-c2ccc(C)cc2)N(CCCCCCC(=O)NS(=O)(=O)Cc2ccccc2)CCC3)cc1 :: 8.23
4) Cc1ccc(-c2nc3c(nc2-c2ccc(C)cc2)N(CCCCCCC(=O)O)C(=O)C(O)C3)cc1 (single isomer, unassigned) [11(i)] :: 9.52
5) Cc1ccc(-c2nc3c(nc2-c2ccc(C)cc2)N(CCCCCCCCC(=O)O)C(=O)CC3)cc1 :: 8.15
6) Cc1ccc(-c2nc3c(nc2-c2ccccc2C)N(CCCCCCC(=O)O)CCC3)cc1 :: 8.41

====

TEST_TARGET: IP receptor (Homo sapiens)
ASSAY_COMMENT: cAMP accumulation in CHO cells stably expressing the IP receptor (CHO-IP), Perkin Elmer AlphaScreen assay
TEST_SETTINGS: agonist activity, 1 hour at room temperature
Procedure: Activity of compounds at the IP receptor (IP receptor) is assessed by measuring cAMP accumulation in CHO cells stably expressing the IP receptor (CHO-IP) using the Perkin Elmer AlphaScreen assay. This technology measures the endogenous production of cAMP, in a non-radioactive luminescence proximity homogenous assay. […] The reduction in signal is proportional to the amount of cAMP being produced, thus it is possible to quantify the amount of cAMP being produced on stimulation with agonist. […]
pEC50: −log10 of the molar value.
Class definitions on pEC50: Low (below 8), Mid (8 to below 9), High (9 or more)

1) Cc1ccc(-c2nc3c(nc2-c2ccc(C)cc2)N(CCCC[C@@H](O)CC(=O)O)CCC3)cc1 (single isomer, unassigned) [Example 17a] :: Mid
2) Cc1ccc(-c2nc3c(nc2-c2ccc(C)cc2)N(CCCCCCC(=O)NS(=O)(=O)Cc2ccccc2)CCC3O)cc1 (single isomer, unassigned) [Example 13.2] :: Low
3) CCC1Cc2nc(-c3ccc(C)cc3)c(-c3ccc(C)cc3)nc2N(CCCCCCC(=O)O)C1 (stereo not shown) :: High
4) Cc1ccc(-c2nc3c(nc2-c2ccc(C)cc2)N(CCCCCCC(=O)O)CC(N2CCCCC2)C3)cc1 (stereo not shown) :: Mid
5) CCC1CCc2nc(-c3ccc(C)cc3)c(-c3ccc(C)cc3)nc2N1CCCCCCC(=O)O (single isomer, unassigned) [2.3(i)] :: Mid
6) Cc1ccc(-c2nc3c(nc2-c2ccc(C)cc2)N(CCCCCCC(=O)NO)CCC3)cc1 :: High
7) Cc1ccc(-c2nc3c(nc2-c2ccc(C)cc2)N(CCCCCCC(=O)NCc2ccccc2)CCC3)cc1 :: Low
8) Cc1ccc(-c2nc3c(nc2-c2ccc(C)nc2)CCCN3CCCCCCC(=O)O)cc1 :: High
9) Cc1ccc(-c2nc3c(nc2-c2ccccc2F)CCCN3CCCCCCC(=O)O)cc1 :: High
10) Cc1ccc(-c2nc3c(nc2-c2ccc(Cl)cc2)N(CCCCCCC(=O)O)C(=O)CC3)cc1 :: High
11) Cc1ccc(-c2nc3c(nc2-c2ccc(C)cc2)N(CCCCCCC(=O)N(C)C)CCC3)cc1 :: Low
12) O=C(O)CCCCCCN1C(=O)CCc2nc(-c3ccc(Cl)cc3)c(-c3ccc(Cl)cc3)nc21 :: Mid
13) Cc1ccc(-c2nc3c(nc2-c2ccc(F)cc2)CCCN3CCCCCCC(=O)O)cc1 :: High
14) COc1ccc(-c2nc3c(nc2-c2ccc(C)cc2)N(CCCCCCC(=O)O)CCC3)cc1 :: High
15) Cc1ccc(-c2nc3c(nc2-c2ccccc2)CC(C)CN3CCCCCCC(=O)O)cc1 (stereo not shown) :: High

====

TEST_TARGET: IP receptor (Homo sapiens)
ASSAY_COMMENT: cAMP accumulation in CHO cells stably expressing the IP receptor (CHO-IP), Perkin Elmer AlphaScreen assay
TEST_SETTINGS: agonist activity, 1 hour at room temperature
pEC50: −log10 of the molar value.
ASSAY_METRIC: pEC50

1. Cc1ccc(-c2nc3c(nc2-c2ccccc2C)CCCN3CCCCCCC(=O)O)cc1 [Example 2.6] :: 9.22
2. CNC(=O)CCCCCCN1CCCc2nc(-c3ccc(C)cc3)c(-c3ccc(C)cc3)nc21 [Example 12.4] :: 7.92
3. O=C(O)CCCCCCN1CCCc2nc(-c3ccc(F)cc3F)c(-c3ccc(F)cc3F)nc21 [Example 4] :: 9.15
4. Cc1ccc(-c2nc3c(nc2-c2ccc(C)cc2)N(CCCCC(O)CC(=O)O)CCC3)cc1 (racemic) [Example 17] :: 8.74
5. Cc1ccc(-c2nc3c(nc2-c2ccc(C)cc2)N(CCCCCCC(=O)N(C)O)CCC3)cc1 [Example 12.8] :: 8.10
6. COC1(C)CCN(CCCCCCC(=O)O)c2nc(-c3ccc(C)cc3)c(-c3ccc(C)cc3)nc21 (single isomer, unassigned) [Example 15a] :: 8.96
7. Cc1ccc(-c2nc3c(nc2-c2ccc(C)cc2)N(CCCCCCC(=O)O)CC(C(C)(C)O)C3)cc1 (single isomer, unassigned) [9.2(i)] :: 7.90
8. Cc1ccc(-c2nc3c(nc2-c2ccc(C)nc2)N(CCCCCCC(=O)O)CCC3)cn1 [Example 5] :: 7.93
9. Cc1ccc(-c2nc3c(nc2-c2ccc(Cl)cc2)CCC(=O)N3CCCCCCC(=O)O)cc1 [Example 7.2] :: 8.92
10. CO[C@@H]1CCN(CCCCCCC(=O)O)c2nc(-c3ccc(C)cc3)c(-c3ccc(C)cc3)nc21 (single isomer, unassigned) [Example 3.2] :: 7.87
